B1: COUP transcription factor 1, residues 83 to 159; numbered along this chain, P10589 (parent)
chain: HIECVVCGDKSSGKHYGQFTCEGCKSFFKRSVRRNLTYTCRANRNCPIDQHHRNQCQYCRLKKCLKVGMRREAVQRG

variants of: B1; assay: abundance fitness (aPCA) (normalised: wild type 0, dead -1); higher = more abundant; growth selection in yeast, the domain comes from the species named; settings: Homo sapiens
RESULT_TYPE: abundance fitness
One number for each entry.

>>> readout_number("C24L")
-0.841
>>> readout_number("H51R")
-0.16
>>> readout_number("Q55H")
0.017
>>> readout_number("L65H")
0.102
>>> readout_number("S26D")
-0.32
>>> readout_number("Y58W")
-0.03
>>> readout_number("F27Y")
-0.61
>>> readout_number("Q55R")
-0.074

Report abundance fitness for each item below.
1. L65K
2. H51C

OUTPUT:
1. -0.342
2. -0.118

Here are 6 variants. What values of abundance fitness were reported for them?
1. R34Y
2. R44E
3. C21R
4. A73F
5. R70M
6. K29S

OUTPUT:
1. -0.263
2. 0.082
3. -0.845
4. 0.02
5. 0.173
6. -0.058

Hello, I would appreciate it if you could give abundance fitness for each entry below.
1. C21E
2. Q55W
3. R70D

OUTPUT:
-0.929
0.095
0.163

Each of the following entries comes with a recorded value; kindly state abundance fitness for each.
1. K66P
2. A42N
3. M69Q

OUTPUT:
-0.785
-0.45
-0.831
